Molecular target: Gastrin/cholecystokinin type B receptor (Homo sapiens, UniProt P32239)
Test: Binding affinity at human CCK2 receptor
assay.metric: pKi
Scale for pKi: -log10 of concentration given in mol/L; no unit attached.

Some molecules with known pKi results, for comparison:
[[record]]
molecule = "CC(C)N(C(=O)CN1C(=O)C(NC(=O)Nc2cccc(C(=O)O)c2)C(=O)N(c2ccccc2)c2ccccc21)c1ccccc1 (centres undefined)"
result = 8.00

[[record]]
molecule = "CNc1cccc(NC(=O)N[C@@H]2N=C(c3ccccn3)c3ccccc3N(CC(=O)C(C)(C)C)C2=O)c1 [NETAZEPIDE]"
result = 10.10

[[record]]
molecule = "CC(C)N(C(=O)CN1C(=O)C(CC(=O)Nc2ccccc2)C(=O)N(c2ccccc2)c2ccccc21)c1ccccc1 (centres undefined)"
result = 6.10


Record `CC(C)(C)C(=O)CN1C(=O)N(CC(=O)Nc2cccc(C(=O)O)c2)N=C(C2CCCCC2)c2ccccc21` . Reported pKi: 9.00

====

Biological target: Cholecystokinin receptor type A (Homo sapiens)
Sequence (P32238 whole entry): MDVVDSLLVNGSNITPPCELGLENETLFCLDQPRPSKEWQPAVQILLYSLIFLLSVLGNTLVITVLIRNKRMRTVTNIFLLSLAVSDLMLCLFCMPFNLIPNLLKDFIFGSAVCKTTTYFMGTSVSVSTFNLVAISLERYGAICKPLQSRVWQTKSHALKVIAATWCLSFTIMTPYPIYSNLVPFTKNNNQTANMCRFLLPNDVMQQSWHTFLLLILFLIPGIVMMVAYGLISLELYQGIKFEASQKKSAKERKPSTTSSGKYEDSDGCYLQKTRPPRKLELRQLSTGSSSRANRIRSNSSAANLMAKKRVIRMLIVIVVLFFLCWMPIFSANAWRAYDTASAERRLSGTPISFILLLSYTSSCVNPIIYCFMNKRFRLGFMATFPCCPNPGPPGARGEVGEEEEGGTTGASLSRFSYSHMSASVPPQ
Assay: Binding affinity to human CCK1 receptor
assay.metric: Ki (nM)
Give the number; nM is assumed, so skip it.

Some compounds with known Ki results, for comparison:
[[record]]
compound = "CC(C)(C)C(=O)CN1C(=O)N(CC(=O)Nc2cccc(C(=O)O)c2)N=C(C2CCCCC2)c2ccccc21"
study_target = "Cholecystokinin receptor type A (Homo sapiens)"
u = "nM"
result = 10000

[[record]]
compound = "CNc1cccc(NC(=O)N[C@@H]2N=C(c3ccccn3)c3ccccc3N(CC(=O)C(C)(C)C)C2=O)c1 [NETAZEPIDE]"
study_target = "Cholecystokinin receptor type A (Homo sapiens)"
u = "nM"
result = 31.6

[[record]]
compound = "CC(C)N(C(=O)CN1C(=O)C(CC(=O)Nc2ccccc2)C(=O)N(c2ccccc2)c2ccccc21)c1ccccc1 (centres undefined)"
study_target = "Cholecystokinin receptor type A (Homo sapiens)"
u = "nM"
result = 158


Turning to the following compound.
Record CC(C)N(C(=O)CN1C(=O)C(NC(=O)Nc2cccc(C(=O)O)c2)C(=O)N(c2ccccc2)c2ccccc21)c1ccccc1 (centres undefined) . Reported Ki: 126

====

Target: Gastrin/cholecystokinin type B receptor (Homo sapiens, UniProt P32239)
Sequence (P32239 whole entry): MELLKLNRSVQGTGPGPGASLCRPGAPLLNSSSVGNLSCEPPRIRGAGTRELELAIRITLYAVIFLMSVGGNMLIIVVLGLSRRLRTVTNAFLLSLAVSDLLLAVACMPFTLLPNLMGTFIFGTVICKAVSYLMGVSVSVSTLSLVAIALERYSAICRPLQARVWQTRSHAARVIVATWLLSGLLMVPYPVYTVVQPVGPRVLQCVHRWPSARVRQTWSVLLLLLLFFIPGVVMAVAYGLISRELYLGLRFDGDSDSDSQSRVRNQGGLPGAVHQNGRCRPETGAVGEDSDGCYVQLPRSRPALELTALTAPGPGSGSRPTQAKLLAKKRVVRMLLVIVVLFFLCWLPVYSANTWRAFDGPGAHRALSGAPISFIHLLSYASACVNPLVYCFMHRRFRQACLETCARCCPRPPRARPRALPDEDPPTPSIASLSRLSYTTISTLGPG
Test: Displacement of [125I]BH-CCK-8S from human recombinant CCK2 receptor expressed in NIH3T3 cells
Assay type: cell-based
Each entry below carries its recorded Ki.
Give the number; nM is assumed, so skip it.

Some molecules with known Ki results, for comparison:
[[record]]
cpd_smiles = "O=C(CN1C(=O)N(CC(=O)N2CCCC2)c2ccccc2N(c2ccccc2)C1=O)Nc1ccccc1"
assay_metric = "Ki"
result = 1000

[[record]]
cpd_smiles = "Cc1cccc(NC(=O)CN2C(=O)N(CC(=O)N3CCCC3)c3ccccc3N(C3CCCCCC3)C2=O)c1"
assay_metric = "Ki"
result = 23.4


Record `Cc1cccc(NC(=O)CN2C(=O)N(CC(=O)C(C)(C)C)c3ccccc3N(C3CCCCCC3)C2=O)c1` . Reported Ki: 7.59
